System: HOP-62
Assay: NCI tumour cell line growth inhibition, 48 h
Active and inactive are the calls of the source. Rule as the data show it: active = GI50 up to about 1.1 µM and inactive = higher.
READOUT_KIND: GI50

>>> df
                                    compound          test_result
 0   CCC1CCC2CCCC(C)N12 (stereo unspecified)  > 100 µM (inactive)
 1            CCO/C(Cc1ccc(Cl)cc1)=N/NC(N)=S  > 100 µM (inactive)
 2             CCN(CC)CC(=O)/C=C/c1ccc(C)cc1   34.1 µM (inactive)
 3  CC[N+]1(C)CCC(O)(c2ccccc2)C(C(=O)c2ccccc2)C1 (stereo unspecified)     22 µM (inactive)
 4  CC(C)CCC[C@@H](C)C1CCC2[C@@H]3CCC4C[C@@H](NS(C)(=O)=O)CC[C@]4(C)C3CC[C@@]21C (stereo partly specified)  > 100 µM (inactive)
 5  C[N+](C)(C)CC1CCCCCCCCCCC1=O (stereo unspecified)   39.4 µM (inactive)
 6  O=c1c2nc(-c3ccccc3)oc2n(-c2ccccc2)c(=O)n1-c1ccccc1   17.5 µM (inactive)
 7  CCN(CC)CCNc1ccc2ncn3c4c(OC)ccc(O)c4c(=O)c1c23   15.4 µM (inactive)
 8         CN(C)c1ccc(/C=C2\N=C(NN)NC2=O)cc1  > 100 µM (inactive)
 9              COC(=O)c1c(C#N)c(N)nc2c1CCC2  > 100 µM (inactive)
10  O=c1c(C(c2ccc3ccccc3c2)c2c(O)oc3ccccc3c2=O)c(O)oc2ccccc12   39.3 µM (inactive)

====

System: UO-31
Assay: NCI tumour cell line growth inhibition, 48 h
Activity calls are given as the source filed them. No stated cut-off is given here; in the data, active = GI50 up to about 1.1 µM and inactive = higher.
Outcomes: true (1) for active, false (0) for inactive

MOLECULE	LABEL
CCCCCCCCc1cc2c(O)c(c1)Cc1cc(CCCCCCCC)cc(c1O)Cc1cc(CCCCCCCC)cc(c1O)Cc1cc(CCCCCCCC)cc(c1O)Cc1cc(CCCCCCCC)cc(c1O)Cc1cc(CCCCCCCC)cc(c1O)C2	false (0)
COc1ccc(C2(CN(C)C)COc3cc(OC)c(OC)cc3C2=O)cc1OC (centres undefined)	false (0)
COC(=O)/C(=N\Nc1nc(S)nn1N)C(C#N)c1ccccc1 (centres undefined)	false (0)
C[N+](CCCl)(CCCl)Cc1cccc2cccc([N+](=O)[O-])c12	false (0)
COC(=O)CCC(=O)NC1=C(Nc2ccccc2)C(=O)c2ccccc2C1=O	false (0)
O=C(/C=C/c1ccccc1)c1ccc(NCc2nc3ccccc3[nH]2)cc1	false (0)
CC(=O)Oc1ccc(O)c2c1CCCC2	false (0)
CCCNC(=O)CCC(C)[C@H]1CCC2C3C(C[C@H](OC(C)=O)[C@@]21C)[C@@]1(C)CCC2(C[C@H]1C[C@H]3OC(C)=O)OOC1(CCCCC1)OO2 (some centres undefined)	true (1)
[Se]=P(c1ccccc1)(c1ccccc1)c1ccc(C(c2ccccc2)=P(c2ccccc2)(c2ccccc2)c2ccccc2)cc1	false (0)
CC(=O)OC[C@@]1(C)[C@@H]2[C@@H]3[C@@]4(CO[C@]3(C)C(=O)[C@@]3(OC(C)=O)C[C@H](C)[C@H](OC(C)=O)[C@@H]3[C@H]4OC(C)=O)[C@H](OC(=O)c3ccccc3)C[C@@H]21	false (0)
C=C1C(=O)C=C2C=C3C(=O)C(C)(C)C[C@]3(O)C12C (some centres undefined)	false (0)
Oc1[nH]c(Nc2cccc(Br)c2)nc2ncnc1-2	false (0)
O=C1c2ccccc2C(=O)N1C/C=N/NS(=O)(=O)c1ccc2ccccc2c1	false (0)
CCCC(Sc1ccccc1)P(=O)(c1ccccc1)c1ccccc1 (centres undefined)	false (0)
C[N+](C)(C)CC1CCCCCCCCCCC1=O (centres undefined)	false (0)
N#Cc1c(N2CCC(O)C2)c2ccccc2n2c1nc1ccccc12 (centres undefined)	false (0)
Cc1ccc(-n2cc(-c3ccc(Cl)cc3)c(C#N)c2N)cc1	false (0)
CC(=O)OC1COC(N2C(=O)C(=O)c3ccccc32)C(OC(C)=O)C1OC(C)=O (centres undefined)	false (0)
O=C(NN=C1NCCCN1)c1ccco1	false (0)
